The reported numbers originate from the supplement of paper PMC4862054.

Tested on: HDQ-P1
TEST PROTOCOL: normalised viability (% of control), CellTiter-Blue; higher = more viable cells (about 100 = DMSO control)
PARTICULARS: incubation time: 72 h
// normalised viability lookup, one value per entry

Previously resolved entries follow.
COMPOUND: C[C@]12CC[C@@H]3c4ccc(O)cc4C[C@@H](CCCCCCCCC[S+]([O-])CCCC(F)(F)C(F)(F)F)[C@H]3[C@@H]1CC[C@@H]2O (stereo not given in full) [Fulvestrant] (300 nM)
normalised viability: 74.7%
--
COMPOUND: CO[C@H]1/C=C\C=C(/C)C(=O)NC2=CC(=O)C(NCCN(C)C)=C(C[C@@H](C)C[C@H](OC)[C@H](O)[C@@H](C)/C=C(\C)[C@@H]1OC(N)=O)C2=O [Alvespimycin] (30 nM)
normalised viability: 44.2%
--
COMPOUND: N[C@@H](CSC(c1ccccc1)(c1ccccc1)c1ccccc1)C(=O)O [S-trityl-L-cysteine] (1200 nM)
normalised viability: 68.4%
--
COMPOUND: Cc1ccc(-n2nc(C(C)(C)C)cc2NC(=O)Nc2ccc(OCCN3CCOCC3)c3ccccc23)cc1 [Doramapimod] (300 nM)
normalised viability: 38%
--
COMPOUND: NC(=O)Nc1cc(-c2cccc(F)c2)sc1C(=O)N[C@H]1CCCNC1 [AZD 7762] (30 nM)
normalised viability: 93.9%
--
COMPOUND: CN[C@@H]1C[C@H]2O[C@@](C)([C@@H]1OC)n1c3ccccc3c3c4c(c5c6ccccc6n2c5c31)C(=O)N[C@H]4O [UCN-01] (300 nM)
normalised viability: 26.2%

Short answer on HDQ-P1 for Oc1nc(-c2ccc(C(F)(F)F)cc2)nc2c1CSCC2 [XAV-939] (300 nM) , normalised viability: 112%

Short answer on HDQ-P1 for Cc1ccc(C(=O)N(CCCN)[C@@H](c2oc3cc(Cl)ccc3c(=O)c2Cc2ccccc2)C(C)C)cc1 (30 nM) , normalised viability: 74%

Short answer on HDQ-P1 for Cn1c(CCCC(=O)O)nc2cc(N(CCCl)CCCl)ccc21 [Bendamustine] (300 nM) , normalised viability: 61%

Short answer on HDQ-P1 for C=C(c1ccc(C(=O)O)cc1)c1cc2c(cc1C)C(C)(C)CCC2(C)C [Bexarotene] (300 nM) , normalised viability: 54.5%
